Data provenance: ChEMBL document CHEMBL1961873

# Target: Mitogen-activated protein kinase 3 (Homo sapiens);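 further: each value is a mean inhibition figure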
# Run conditions: at 0.1 µM
Readout: inhibition (%)
// return numeric value only (unit: %, not printed)

Consider the following illustrative entries.
Fc1cccc(COc2ccc(Nc3ncnc4sc(-c5ccco5)cc34)cc2Cl)c1 :: 2.39
COc1ccc(-c2cc(-c3c[nH]nc3-c3ccccn3)ccn2)cc1 :: 3.56
CCN(CC)S(=O)(=O)c1ccc(OC)c(Nc2ncc(-c3ccccc3)o2)c1 :: 1.68
CS(=O)(=O)CCNCc1coc(-c2ccc3ncnc(Nc4ccc(OCc5ccccc5)cc4)c3c2)c1 :: 3.44
COc1cc(Nc2nccc(Nc3ccc4c(C)n[nH]c4c3)n2)cc(OC)c1OC :: 1.57
CCCN1CCC(c2ccc(Nc3nc(Nc4cc(F)ccc4C(N)=O)c4cc[nH]c4n3)c(OC)c2)CC1 :: 4.94
COc1cc2c(cc1Nc1nc(Nc3ccsc3C(N)=O)c3cc[nH]c3n1)N(C(=O)CN(C)C)CCC2(C)C :: 3.02
COc1ccc(-c2nn3ncccc3c2-c2ccnc(Nc3ccc4c(c3)OCCO4)n2)cc1 :: 3.56
c1ccc(COc2ccc(Nc3ncnc4ccc(-c5ccco5)cc34)cc2)cc1 :: 0.95
N#Cc1c(NC(=O)CN2CCOCC2)sc2c1CCCC2 :: 3.09

Okay, next one:
Entry `COC(=O)Nc1nc2ccc(Oc3ccc(NC(=O)Nc4cccc(Cl)c4)cc3)cc2[nH]1` ; assay system Mitogen-activated protein kinase 3 (Homo sapiens); inhibition recorded at -0.95

---

Each record here notes measured inhibition.
# Target: Serine/threonine-protein kinase Nek1 (Homo sapiens);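 further: mean percent inhibition of NEK1 kinase, from the GSK PKIS (published kinase inhibitor set) screening panel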
# Run conditions: at 0.1 µM
Give just the numeric value; % need not be written.

c1ccc(-c2nc3n(c2-c2ccc4c(c2)OCO4)CCC3)nc1 :: 2.25
c1cc(-c2cnn3nc(N4CCOCC4)ccc23)nc(NC2CC2)n1 :: 3.14
Cc1cccc2c1NC(=O)/C2=N\Nc1ccc(S(N)(=O)=O)cc1 :: 1
COc1ccc(-c2nn3ncccc3c2-c2ccnc(Nc3ccc4c(c3)OCCO4)n2)cc1 :: 0.11
CCOc1ccc2c(-c3ccnc(Nc4cccc(C(F)(F)F)c4)n3)cnn2n1 :: 2.34
CC1=C(C(=O)Nc2cc(Cl)c3[nH]ncc3c2)C(c2ccc(C(F)(F)F)cc2)CC(=O)N1 (stereo not given) :: 2.99
CCCN(CCS(C)(=O)=O)Cc1ccc(-c2ccc3ncnc(Nc4ccc(OCc5cccc(F)c5)c(Cl)c4)c3c2)o1 :: 2.4
COc1ccc2c(-c3ccnc(Nc4cccc(OC(F)(F)F)c4)n3)cnn2n1 :: 3.61

Just so you know, measured inhibition for `NS(=O)(=O)c1ccc(Nc2ncc(-c3ccccc3)o2)cc1` came out at 2.41

Notebook: `N#Cc1c(NC(=O)c2ccc(F)cc2)sc2c1CCCC2` , inhibition read as 9.69

---

# Target: Serine/threonine-protein kinase D2 (Homo sapiens) (UniProt Q9BZL6);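 further: reported percent inhibition values are means, part of the GSK PKIS kinase panel screen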
# Sequence (Q9BZL6 whole entry): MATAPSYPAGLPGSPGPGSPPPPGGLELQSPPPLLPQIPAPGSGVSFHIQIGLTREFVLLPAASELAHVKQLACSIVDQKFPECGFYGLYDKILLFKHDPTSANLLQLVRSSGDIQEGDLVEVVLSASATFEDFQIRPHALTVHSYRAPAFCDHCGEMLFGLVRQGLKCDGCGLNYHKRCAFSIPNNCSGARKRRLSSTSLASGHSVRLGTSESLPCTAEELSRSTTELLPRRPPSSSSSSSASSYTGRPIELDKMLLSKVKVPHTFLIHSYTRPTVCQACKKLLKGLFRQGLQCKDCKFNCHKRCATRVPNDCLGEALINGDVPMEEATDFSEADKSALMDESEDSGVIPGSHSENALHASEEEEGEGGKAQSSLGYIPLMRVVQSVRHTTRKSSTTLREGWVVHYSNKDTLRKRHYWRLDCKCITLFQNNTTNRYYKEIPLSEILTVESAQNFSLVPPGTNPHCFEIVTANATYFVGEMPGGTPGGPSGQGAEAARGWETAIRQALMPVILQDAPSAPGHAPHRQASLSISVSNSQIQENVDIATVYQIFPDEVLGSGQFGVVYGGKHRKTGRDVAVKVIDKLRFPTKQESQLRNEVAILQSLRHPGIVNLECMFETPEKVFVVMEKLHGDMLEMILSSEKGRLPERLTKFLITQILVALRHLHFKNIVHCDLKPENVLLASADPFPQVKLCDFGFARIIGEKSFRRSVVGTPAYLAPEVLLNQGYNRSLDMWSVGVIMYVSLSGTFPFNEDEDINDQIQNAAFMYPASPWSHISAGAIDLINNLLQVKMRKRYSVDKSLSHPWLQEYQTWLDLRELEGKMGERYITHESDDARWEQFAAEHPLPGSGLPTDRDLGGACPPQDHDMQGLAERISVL
# Run conditions: at 0.1 µM
Parameter inhibition: see the listing below.
Write the value in % as a bare number.

Known inhibition results, listed for orientation:
COc1cc(N2CCN(C(C)C)CC2)ccc1Nc1nc(Nc2ccc(F)cc2C(N)=O)c2cc[nH]c2n1 :: 59.9
CC(C)COC(=O)c1ccc2c(c1)/C(=C/Nc1ccc(S(N)(=O)=O)cc1)C(=O)N2 :: 4.41
CCOc1ccc2c(-c3ccnc(Nc4cccc(C(F)(F)F)c4)n3)cnn2n1 :: 3.62
COc1cc2ncn(-c3cc(OCc4ccccc4C(F)(F)F)c(C(=O)N(C)C)s3)c2cc1OC :: 1.09
COC(=O)Nc1nc2ccc(S(=O)(=O)c3ccc(NC(=O)Nc4cc(C(F)(F)F)ccc4F)cc3)cc2[nH]1 :: 2.66

Reported inhibition ( `CN1CCC(n2cnc(-c3ccc(F)cc3)c2-c2ccnc(Nc3ccccc3)n2)CC1` ) = 7.44

Lab note: measured inhibition of `COc1ccc2c(-c3ccnc(Nc4cccc(OC(F)(F)F)c4)n3)cnn2n1` was 3.92

Field inhibition (entry `c1cc(-c2cnn3nc(N4CCOCC4)ccc23)nc(NC2CC2)n1` ) reads 6.38

// field: inhibition; key: `COc1ccc(-c2nn3ncccc3c2-c2ccnc(Nc3ccc4c(c3)OCCO4)n2)cc1` ; value = 2.69

Form: compound = `COc1cccc(-c2c[nH]c3c(N/N=C/c4ccncc4)ncnc23)c1` ; inhibition = 1.26

---

Parameter inhibition: see the listing below.
# Target: cAMP-dependent protein kinase catalytic subunit alpha (Homo sapiens) (UniProt P17612);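 further: mean percent inhibition of PKA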
# Run conditions: at 1 µM
Field format: number, assumed %, no unit text.

Reference set, count: 3
Nc1nc(-c2ccc(F)cc2)c(-c2ccc3ncccc3n2)s1 :: 3.75
CC1=C(C(=O)Nc2cc(Cl)c3[nH]ncc3c2)C(c2ccc(C(F)(F)F)cc2)CC(=O)N1 (stereo unspecified) :: 71
Cc1ccc2c(-c3ccnc(Nc4ccccc4)n3)c(-c3ccc(F)cc3)nn2n1 :: 4.25

inhibition recorded for this molecule, `CN1CCC(n2cnc(-c3ccc(F)cc3)c2-c2ccnc(N)n2)CC1` , is 7.95

Data point: `NS(=O)(=O)c1ccc(N/N=C2\C(=O)Nc3ccc4ncccc4c32)cc1` ; inhibition = 3.13

// recorded inhibition for `COc1ccc(-c2nn3ncccc3c2-c2ccnc(Nc3ccc4c(c3)OCCO4)n2)cc1` : 2.32

---

Let's look at some compounds and their measured inhibition.
# Target: Serine/threonine-protein kinase MRCK beta (Homo sapiens);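 further: averaged inhibition values against MRCK beta, part of the GSK PKIS profiling dataset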
# Run conditions: at 1 µM
Expressed in %, but write only the number.

NS(=O)(=O)c1ccc(N/N=C2\C(=O)Nc3ccc4ncccc4c32)cc1 :: 7.07
COc1ccc(-c2oc3ncnc(N)c3c2-c2ccc(NC(=O)Nc3cc(C(F)(F)F)ccc3F)cc2)cc1 :: 1.86
COc1cc(/C=N/Nc2ncnc3[nH]ncc23)ccc1O :: 1.83
c1ccc(-c2nc3n(c2-c2ccc4c(c2)OCO4)CCC3)nc1 :: 4.63

The compound listed as `CCc1nn2ncccc2c1-c1ccnc(NC2CC2)n1` shows inhibition equal to 2.16

Lab book: inhibition of `COc1cccc(-c2c[nH]c3c(N/N=C/c4ccncc4)ncnc23)c1` noted as 5.25

Note to self: inhibition recorded for `FC(F)(F)c1cccc(-c2nn3ncccc3c2-c2ccnc(Nc3ccc4c(c3)OCCO4)n2)c1` was 1.29

Field inhibition (entry `CCN(CC)S(=O)(=O)c1ccc(OC)c(Nc2ncc(-c3ccccc3)o2)c1` ) reads -0.04

Notebook: `O=C(Nc1n[nH]c2cc(-c3ccc(F)cc3)ccc12)C1CC1` , inhibition read as 5.66

Consider `COC(=O)Nc1nc2ccc(Oc3ccc(NC(=O)Nc4cccc(Cl)c4)cc3)cc2[nH]1` . Its measured inhibition is -1.4

---

# Test system: Tyrosine-protein kinase ABL1 (Homo sapiens), P00519 [T315I]
# Run conditions: at 1 µM
Could you label it class 1 if measured inhibition is 20% or higher, and class 0 otherwise?

COC(=O)Nc1nc2ccc(Oc3ccc(NC(=O)Nc4cccc(Cl)c4)cc3)cc2[nH]1 :: class 1
COc1ccc2c(-c3ccnc(Nc4cccc(OC(F)(F)F)c4)n3)cnn2n1 :: class 0
CCn1c(-c2nonc2N)nc2c(C#CC(C)(C)O)ncc(OC3CCNCC3)c21 :: class 0
NS(=O)(=O)c1ccc(Nc2ncc(-c3ccccc3)o2)cc1 :: class 0
CN(C)CCOc1ccc(-c2nc(-c3ccncc3)c(-c3ccc4c(c3)CC/C4=N\O)[nH]2)cc1 :: class 1
CNC(=O)c1cccc(C#Cc2cncnc2Nc2ccc(OCc3cccc(F)c3)c(Cl)c2)c1 :: class 0
CCn1c(-c2nonc2N)nc2cnc(Oc3cccc(NC(=O)c4ccc(N(C)C)cc4)c3)cc21 :: class 0
O=S(=O)(CCNCc1ccc(-c2ccc3ncnc(Nc4ccc(OCc5cccc(F)c5)c(Cl)c4)c3c2)o1)c1ccccc1 :: class 0

-- ask Please tell me: is the molecule `CCN(CC)S(=O)(=O)c1ccc(OC)c(Nc2ncc(-c3ccccc3)o2)c1` at or over 20% in terms of inhibition?
-- reply class 0

---

# Target: Tyrosine-protein kinase Fes/Fps (Homo sapiens) (UniProt P07332)
# Sequence (P07332 whole entry): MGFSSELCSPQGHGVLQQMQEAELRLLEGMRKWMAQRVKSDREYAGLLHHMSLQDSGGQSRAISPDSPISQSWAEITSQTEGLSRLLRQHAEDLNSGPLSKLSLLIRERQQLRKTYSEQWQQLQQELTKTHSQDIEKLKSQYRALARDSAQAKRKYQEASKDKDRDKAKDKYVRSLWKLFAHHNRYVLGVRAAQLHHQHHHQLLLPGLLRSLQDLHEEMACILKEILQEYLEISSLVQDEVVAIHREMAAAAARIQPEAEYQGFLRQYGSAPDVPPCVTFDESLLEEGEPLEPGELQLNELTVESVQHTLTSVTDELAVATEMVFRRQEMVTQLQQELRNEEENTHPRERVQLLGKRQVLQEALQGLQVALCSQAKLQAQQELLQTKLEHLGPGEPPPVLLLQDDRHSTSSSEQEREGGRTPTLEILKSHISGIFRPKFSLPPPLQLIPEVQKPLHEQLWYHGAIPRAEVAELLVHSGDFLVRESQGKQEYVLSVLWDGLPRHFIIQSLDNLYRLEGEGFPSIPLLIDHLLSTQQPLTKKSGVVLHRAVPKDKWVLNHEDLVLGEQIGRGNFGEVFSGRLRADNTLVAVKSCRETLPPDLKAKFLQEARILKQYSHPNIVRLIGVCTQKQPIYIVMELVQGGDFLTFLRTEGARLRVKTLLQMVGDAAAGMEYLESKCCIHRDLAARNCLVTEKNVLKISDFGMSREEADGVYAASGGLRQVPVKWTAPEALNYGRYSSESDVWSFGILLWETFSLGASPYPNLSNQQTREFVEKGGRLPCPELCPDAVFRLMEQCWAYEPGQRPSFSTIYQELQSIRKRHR
# Run conditions: at 0.1 µM
# Description: GSK_PKIS: FES mean inhibition at 0.1 uM [Nanosyn]
Readout: inhibition (%)
Unit % implied. Number only.

COc1ccc(-c2cc3c(N)ncnc3o2)cc1 :: -0.35
c1cc(-c2cnn3nc(N4CCOCC4)ccc23)nc(NC2CC2)n1 :: 3.42
O=C(Nc1n[nH]c2cc(-c3ccc(F)cc3)ccc12)C1CC1 :: 1.98
NC(=O)c1sc(-n2cnc3ccc(C(F)(F)F)cc32)cc1OCc1ccccc1Br :: 1.79
Fc1ccc(-c2cc(-c3c[nH]nc3-c3ccccn3)ccn2)cc1 :: 2.57
Fc1cccc(COc2ccc(Nc3ncnc4sc(-c5ccco5)cc34)cc2Cl)c1 :: 3.4
CCCN1CCC(c2ccc(Nc3nc(Nc4cc(F)ccc4C(N)=O)c4cc[nH]c4n3)c(OC)c2)CC1 :: 62.5
COc1cc2c(cc1Nc1nc(Nc3ccsc3C(N)=O)c3cc[nH]c3n1)N(C(=O)CN(C)C)CCC2(C)C :: 76.5

Quick note, inhibition for `Fc1ccc(-c2nn3ccccc3c2-c2ccncc2)cc1` landed at 0.57

The value of inhibition measured for the compound `CC(=O)NCc1cccc(C#Cc2cncnc2Nc2ccc(OCc3cccc(F)c3)c(Cl)c2)c1` turned out to be 0.32

Reported inhibition for `CS(=O)(=O)CCNCc1coc(-c2ccc3ncnc(Nc4ccc(OCc5ccccc5)cc4)c3c2)c1` was 2.79

Reported inhibition for `COC(=O)Nc1nc2ccc(Oc3ccc(NC(=O)Nc4cccc(Cl)c4)cc3)cc2[nH]1` was 1.11

Input `COc1cc(N2CCN(C(C)C)CC2)ccc1Nc1nc(Nc2ccc(F)cc2C(N)=O)c2cc[nH]c2n1` . Output inhibition: 39.9

Entry under test: `O=C(O[C@H]1CN[C@H](C#Cc2cc3ncnc(Nc4ccc(Cc5ccccc5)cc4)c3s2)C1)N1CCOCC1` . Its inhibition was 1.87
